These measurements were taken from ChEMBL document CHEMBL3988442.

Species on record: Homo sapiens
assay overview: To identify inhibition of the IFN signalling (Jak-Stat) pathway via expression of an eGFP reporter gene under the control of an IFN-stimulated response element (ISRE) containing MxA promoter.
Assay type: functional
Parameters: scale not given: direction of the effect not stated beside the values
assay conditions: 30 µM
value kind: Percent Effect (%)
// units = %; emit number, no label

input: Tell me the measured Percent Effect of CC(C)c1noc(CCC(=O)NCC2CCOC2)n1 (stereo unspecified) , please.
output: 2.04

input: Tell me the measured Percent Effect of CCn1cc(NC(=O)NCC(c2cccc(F)c2)N(C)C)cn1 (stereo unspecified) , please.
output: -12.5

input: Tell me the measured Percent Effect of Cc1cc(C)c2cc(CNCc3ccccc3)c3nn(C)c(=O)n3c2c1 , please.
output: 13.4

input: Tell me the measured Percent Effect of OC(CNCCn1cccn1)c1ccc2c(c1)OCCO2 (stereo unspecified) , please.
output: -2.77

input: Tell me the measured Percent Effect of O=C(c1cc2cc(F)ccc2[nH]1)N1CCC(Nc2cccnn2)CC1 , please.
output: 14

input: Tell me the measured Percent Effect of Cn1ncc(NCc2cccc(COC(C)(C)C)c2)c(Cl)c1=O , please.
output: 49.3

----------
target or test system: Proteasome subunit beta (Trypanosoma cruzi)
Sequence (whole entry): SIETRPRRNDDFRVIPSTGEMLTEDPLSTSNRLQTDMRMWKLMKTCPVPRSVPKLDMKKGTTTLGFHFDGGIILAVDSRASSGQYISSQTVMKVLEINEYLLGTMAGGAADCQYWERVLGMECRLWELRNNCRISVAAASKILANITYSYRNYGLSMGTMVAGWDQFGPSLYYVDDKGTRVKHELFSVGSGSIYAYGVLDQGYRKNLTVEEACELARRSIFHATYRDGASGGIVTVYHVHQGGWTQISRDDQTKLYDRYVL
assay overview: Trypanosoma cruzi proteasome chymotrypsin-like activity (TcProtChymo) assay. Further: in the data most compounds retested in dose-response had high values.
Type: functional
Parameters: scale not given: direction of the effect not stated beside the values
assay conditions: 9.37 µM
value kind: Percent Effect (%)
// units = %; emit number, no label

input: Tell me the measured Percent Effect of NS(=O)(=O)CCNC(=O)C1(c2ccc(Br)cc2)CC1 , please.
output: 13

input: Tell me the measured Percent Effect of O=C(c1cc(COc2ccc3c(c2)OCO3)[nH]n1)N1CCOCC1 , please.
output: 7.45

input: Tell me the measured Percent Effect of CCc1noc(CNc2cc(F)ccc2OCC2CCCO2)n1 (stereo not drawn) , please.
output: 11.9

input: Tell me the measured Percent Effect of CC(C(=O)NCCCn1ccnc1)n1cc(Br)cn1 (stereo not drawn) , please.
output: 10.7

input: Tell me the measured Percent Effect of Cc1ccc(S(=O)(=O)N2CCC3(CC(C(=O)NCC4CC4)=NO3)C2)cc1 (stereo not drawn) , please.
output: 18.3

input: Tell me the measured Percent Effect of Cc1cccc(C2(NC(=O)CCN3C(=O)CCC3=O)CCCC2)c1 , please.
output: 4.83

input: Tell me the measured Percent Effect of CC1CCCN(C(=O)c2cccc(CS(C)(=O)=O)c2)C1 (stereo not drawn) , please.
output: 22.4

input: Tell me the measured Percent Effect of Cn1cnnc1S(=O)(=O)C1CCN(S(=O)(=O)c2ccc(F)c(Cl)c2)CC1 , please.
output: 7.1

input: Tell me the measured Percent Effect of Cc1nn(CCn2ccnc2-c2cc3n(n2)CCCNC3)c(C)c1Cl , please.
output: 16.9

input: Tell me the measured Percent Effect of COc1ccc(CNC(=O)NC2CCC(O)CC2)c(C(F)(F)F)c1 (stereo not drawn) , please.
output: 14

input: Tell me the measured Percent Effect of CN1CCOC(CNC(=O)CCCOc2ccccc2F)C1 (stereo not drawn) , please.
output: 18.5

input: Tell me the measured Percent Effect of CCc1noc(C(C)N2CCN(Cc3nnc(C4CC4)o3)CC2)n1 (stereo not drawn) , please.
output: -3.31

input: Tell me the measured Percent Effect of Cc1csc(CN2CC[C@H]3C[C@H](c4nnc(C)[nH]4)O[C@@H]3C2)n1 , please.
output: 9.33

input: Tell me the measured Percent Effect of Cn1cnc2c1C(COCC1CC1)CN(C(=O)Cc1ccsc1)C2 (stereo not drawn) , please.
output: 7.14

input: Tell me the measured Percent Effect of Cc1noc([C@@H]2CCCN2C(=O)C2CCN(C(=O)C3CCC3)CC2)n1 , please.
output: 11.7

input: Tell me the measured Percent Effect of CN(C)C[C@H]1OC[C@@H]2CCN(S(=O)(=O)c3ccccc3)C[C@@H]21 , please.
output: 7.33

input: Tell me the measured Percent Effect of Cc1ccc(CC(=O)N2CCCCC2c2nc(C)cs2)cn1 (stereo not drawn) , please.
output: 6.52

input: Tell me the measured Percent Effect of Cc1ccc(-c2cccc(-c3ccn(CCN4CCCC4)n3)c2)nn1 , please.
output: 4.31

input: Tell me the measured Percent Effect of CCn1cc(CN2C[C@@H]3CCCN3C[C@@H]2CCSC)c(C)n1 , please.
output: 8.37

input: Tell me the measured Percent Effect of CCn1ncc(NC(=O)c2cc(C3CC3)nc3c2c(C)nn3C)c1C , please.
output: 22

input: Tell me the measured Percent Effect of CCc1ccc(S(=O)(=O)N2CCC3(CC(C(=O)NC)=NO3)C2)cc1 (stereo not drawn) , please.
output: 4.68

input: Tell me the measured Percent Effect of CCOc1cccc2c1OCC(C(=O)NS(=O)(=O)Cc1ccccc1)=C2 , please.
output: 2.52

input: Tell me the measured Percent Effect of CCC(=O)NC1CCN(c2cccc(CC)c2)CC1 , please.
output: 4.97

----------
target or test system: Ubiquitin-activating enzyme e1, putative (Leishmania donovani (strain BPK282A1))
assay overview: Leishmania donovani Ubiquitin Activating Enzyme (LdE1)
Format: functional
Parameters: scale not given: direction of the effect not stated beside the values
assay conditions: 30 µM
Potency and affinity values are given separately.
Exercise: state measured Percent Effect for each of the compounds provided.
// units = %; emit number, no label

input: # query: Percent Effect | item CCCn1nc2c(cc1=O)CN(CC(=O)Nc1ccncc1)CC2 | system: Ubiquitin-activating enzyme e1, putative (Leishmania donovani (strain BPK282A1))
output: 10.4

input: # query: Percent Effect | item Cc1nc(C)n(CC2CCCN2Cc2cscn2)n1 (configuration not stated) | system: Ubiquitin-activating enzyme e1, putative (Leishmania donovani (strain BPK282A1))
output: 2.6

input: # query: Percent Effect | item Cn1cnnc1C1CCCN(C(=O)c2ccccc2Cl)C1 (configuration not stated) | system: Ubiquitin-activating enzyme e1, putative (Leishmania donovani (strain BPK282A1))
output: 18.2

input: # query: Percent Effect | item CN(C)Cc1cc(=O)n2c(n1)CN(C(=O)Cc1ccsc1)CCC2 | system: Ubiquitin-activating enzyme e1, putative (Leishmania donovani (strain BPK282A1))
output: 2.6

input: # query: Percent Effect | item Cc1cc(CNc2cc(Cl)ccc2Cl)no1 | system: Ubiquitin-activating enzyme e1, putative (Leishmania donovani (strain BPK282A1))
output: 0

input: # query: Percent Effect | item COc1cccc(OC)c1CN1CCC2(CC(Nc3ccncn3)C2)C1 (configuration not stated) | system: Ubiquitin-activating enzyme e1, putative (Leishmania donovani (strain BPK282A1))
output: 1.33

input: # query: Percent Effect | item Cc1cnn(CCNCCCOc2ccccc2)c1 | system: Ubiquitin-activating enzyme e1, putative (Leishmania donovani (strain BPK282A1))
output: -21.1

input: # query: Percent Effect | item CC(C)Cc1noc(CN(C)C(=O)C2COc3ccccc3C2)n1 (configuration not stated) | system: Ubiquitin-activating enzyme e1, putative (Leishmania donovani (strain BPK282A1))
output: 5.2

input: # query: Percent Effect | item CC(C)(C)c1ncc2c(n1)CN(C(=O)c1ccc(-c3nc[nH]n3)cc1)C2 | system: Ubiquitin-activating enzyme e1, putative (Leishmania donovani (strain BPK282A1))
output: 19.2

input: # query: Percent Effect | item COc1ncc(C2(O)CCN(Cc3cccs3)CC2)c(OC)n1 | system: Ubiquitin-activating enzyme e1, putative (Leishmania donovani (strain BPK282A1))
output: 22.7

input: # query: Percent Effect | item COc1cccc2c1ccn2CC(=O)N[C@@H](CCSC)C(=O)O | system: Ubiquitin-activating enzyme e1, putative (Leishmania donovani (strain BPK282A1))
output: -1.33

input: # query: Percent Effect | item Cc1cnc2n(c1=O)CC(C(=O)NC1CC1)CS2 (configuration not stated) | system: Ubiquitin-activating enzyme e1, putative (Leishmania donovani (strain BPK282A1))
output: -21.9

----------
target or test system: Ubiquitin-activating enzyme e1, putative (Leishmania donovani (strain BPK282A1)) (UniProt E9BSI1)
Sequence (E9BSI1 as listed by the source): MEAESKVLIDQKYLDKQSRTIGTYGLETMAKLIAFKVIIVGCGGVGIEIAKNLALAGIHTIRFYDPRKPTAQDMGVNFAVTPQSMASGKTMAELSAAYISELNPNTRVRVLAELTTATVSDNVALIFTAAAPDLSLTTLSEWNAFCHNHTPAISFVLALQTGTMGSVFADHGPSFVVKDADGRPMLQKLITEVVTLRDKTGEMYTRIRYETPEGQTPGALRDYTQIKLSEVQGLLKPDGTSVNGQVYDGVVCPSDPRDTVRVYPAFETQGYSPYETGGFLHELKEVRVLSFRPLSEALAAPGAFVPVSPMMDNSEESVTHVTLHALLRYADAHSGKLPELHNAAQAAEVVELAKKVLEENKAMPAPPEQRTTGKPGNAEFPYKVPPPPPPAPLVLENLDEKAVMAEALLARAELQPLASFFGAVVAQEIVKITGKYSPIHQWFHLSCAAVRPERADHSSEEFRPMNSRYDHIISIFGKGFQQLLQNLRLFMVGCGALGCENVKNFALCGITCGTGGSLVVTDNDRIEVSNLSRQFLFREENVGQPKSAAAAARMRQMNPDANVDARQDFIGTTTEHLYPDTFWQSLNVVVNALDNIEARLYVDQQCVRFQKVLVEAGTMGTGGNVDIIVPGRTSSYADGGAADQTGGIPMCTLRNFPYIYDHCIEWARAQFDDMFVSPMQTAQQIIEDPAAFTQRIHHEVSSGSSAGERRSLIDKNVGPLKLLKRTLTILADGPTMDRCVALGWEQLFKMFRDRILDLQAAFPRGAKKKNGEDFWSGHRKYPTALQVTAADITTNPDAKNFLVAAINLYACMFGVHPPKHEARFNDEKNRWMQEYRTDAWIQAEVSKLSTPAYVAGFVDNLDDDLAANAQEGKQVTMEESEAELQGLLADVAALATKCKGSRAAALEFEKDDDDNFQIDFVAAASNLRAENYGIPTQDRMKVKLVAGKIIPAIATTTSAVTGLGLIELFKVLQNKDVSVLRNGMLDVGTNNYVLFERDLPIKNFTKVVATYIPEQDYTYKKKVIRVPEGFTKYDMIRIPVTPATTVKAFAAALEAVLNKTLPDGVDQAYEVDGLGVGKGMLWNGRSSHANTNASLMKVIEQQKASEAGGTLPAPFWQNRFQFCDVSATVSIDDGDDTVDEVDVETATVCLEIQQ
assay overview: Leishmania donovani Ubiquitin Activating Enzyme (LdE1)
Type: functional
Parameters: scale not given: direction of the effect not stated beside the values
assay conditions: 30 µM
Results with a measured potency or affinity are listed apart.
Exercise: state measured Percent Effect for each of the compounds provided.
// units = %; emit number, no label

input: Tell me the measured Percent Effect of CS(=O)(=O)N1CCOCC2(CN(Cc3ccco3)CCO2)C1 (stereo unspecified) , please.
output: 5.48

input: Tell me the measured Percent Effect of Cc1nc(-c2ccc(C(=O)O)cc2)cc(C2CCN(C(C)C)C2)n1 (stereo unspecified) , please.
output: 12

input: Tell me the measured Percent Effect of N#Cc1ccc(S(=O)(=O)NC(=O)C2CC2)c(C(F)(F)F)c1 , please.
output: 21.6

input: Tell me the measured Percent Effect of CC(Cn1cccn1)NC(=O)CCc1ccc(S(N)(=O)=O)cc1 (stereo unspecified) , please.
output: 18.2

input: Tell me the measured Percent Effect of Cc1cccc(Nc2nccnc2C2CCCN2CC(=O)N(C)C)n1 (stereo unspecified) , please.
output: 8

input: Tell me the measured Percent Effect of O=S(=O)(NC1=NCN(CCc2cccs2)CN1)c1ccccc1 , please.
output: 9.33

input: Tell me the measured Percent Effect of CCS(=O)(=O)CCn1ccc(NC(=O)CCc2cccc(C)c2)n1 , please.
output: 5.41

input: Tell me the measured Percent Effect of CCn1cnnc1C1CCN(C(=O)C(OC)c2ccccc2)CC1 (stereo unspecified) , please.
output: 18.2

input: Tell me the measured Percent Effect of CCC[C@@H]1CN(S(=O)(=O)c2ccc(C)c(F)c2)C[C@H]1N(C)C , please.
output: 2.67

input: Tell me the measured Percent Effect of O=C(c1ccc(O)cc1)N1CCN(C(=O)c2ccc3c(c2)COC3)CC1 , please.
output: 10.1

input: Tell me the measured Percent Effect of Cc1nc([C@@H]2C[C@@H]3CCN(C(=O)Cc4ccsc4)C[C@H]3O2)no1 , please.
output: -1.3
